Taken from patent US6930104B2.

Give melting point for every item shown.

# example entries with known answers
>>> print(df.to_string())
                                   compound        readout  recorded_value
0  COc1ccc(C(=O)N2c3ccccc3C(n3c4ccccc4c4ccccc43)CC2CCCO)cc1OC (stereo not drawn)  melting point   192 to 194 °C
1  CCOc1ccc(C(=O)N2c3ccccc3C(N3CCCc4ccccc43)CC2C)cc1OCC (stereo not drawn)  melting point   157 to 158 °C

Kindly consider the entry below.
# melting point (compound: COc1ccc(C(=O)N2c3ccccc3C(N3CCCc4cc(C(C)C)ccc43)C(O)C2C)cc1OC (stereo not drawn) ) is 165 to 166 °C

###

readout: melting point

# example entries with known answers
>>> df
                                   compound  recorded_value
0  COc1ccc(C(=O)N2c3ccccc3C(n3c4ccccc4c4ccccc43)CC2CCCc2ccccc2)cc1OC (stereo not shown)   225 to 226 °C
1  CCOC(=O)CCCCC1CC(n2c3ccccc3c3ccccc32)c2ccccc2N1C(=O)c1ccc(OC)cc1 (stereo not shown)   167 to 168 °C
2  COc1ccc(C(=O)N2c3ccccc3C(N3CCSc4ccccc43)CC2C)cc1OC (racemic) [Example 20]   178 to 180 °C

# melting point (compound: CCCCC1CC(n2c3ccccc3c3ccccc32)c2ccccc2N1C(=O)c1ccc(OC)c(OC)c1 (stereo not shown) ) is 213 °C

###

readout: melting point

Go through the items and report each one's melting point.
1. CCCCC1CC(n2c3ccccc3c3ccccc32)c2ccccc2N1C(=O)c1ccc(OCC)c(OCC)c1 (stereo not shown)
2. COc1ccc(C(=O)N2CCC(N3CC4(CCN(Cc5ccccc5)CC4)c4ccccc43)c3ccccc32)cc1OC (stereo not shown)
3. COc1ccc(C(=O)N2c3ccccc3C(N3CCCc4cc(OCc5ccccc5)ccc43)CC2C)cc1OC (stereo not shown) (hydrate or solvate)
4. COc1ccc(C(=O)N2c3ccccc3C(N3CCCc4cc(C(C)C)ccc43)CC2C)cc1OC (stereo not shown)
5. COc1ccc(C(=O)N2c3ccccc3C(n3c4ccccc4c4ccccc43)CC2CC(C)C)cc1OC (stereo not shown)
6. CCCCC1C=C(n2c3ccccc3c3ccccc32)c2ccccc2N1C(=O)c1ccc(OC)c(OC)c1 (stereo not shown)
7. CCOc1ccc(C(=O)N2c3ccccc3C(n3c4ccccc4c4ccccc43)CC2C)cc1OC (stereo not shown) (hydrate or solvate)

1. 232 to 233 °C
2. 155 to 157 °C
3. 164 to 165 °C
4. 187 to 188 °C
5. 191 to 193 °C
6. 174 to 175 °C
7. 214 to 215 °C

Go through the items and report each one's melting point.
1. CCOc1ccc(C(=O)N2c3ccccc3C(N3CCCc4ccccc43)CC2C)cc1OC (stereo not shown) (hydrate or solvate)
2. COc1ccc(C(=O)N2c3ccccc3C(N3CCCc4ccc(C)cc43)CC2C)cc1OC (stereo not shown)
3. COc1ccc(C(=O)N2c3ccccc3C(N3CCCc4cc(C)ccc43)CC2C)cc1OC (stereo not shown)
4. CCCCC1CC(n2c3ccccc3c3ccccc32)c2ccccc2N1C(=O)c1ccc(SC)c(OC)c1 (stereo not shown)
5. CCCC1CC(n2c3ccccc3c3ccccc32)c2ccccc2N1C(=O)c1ccc(OCC)c(OCC)c1 (stereo not shown) (hydrate or solvate)
6. COc1ccc(C(=O)N2c3ccccc3C(n3c4ccccc4c4ccccc43)C(O)C2C)cc1OC (stereo not shown) (hydrate or solvate)

1. 140 to 142 °C
2. 197 to 198 °C
3. 184 to 185 °C
4. 230 to 231 °C
5. 220 °C
6. 194 to 195 °C

Go through the items and report each one's melting point.
1. COc1ccc(C(=O)N2c3ccccc3C(N3CCc4ccccc4C3)CC2C)cc1OC (stereo not shown)
2. COc1ccc(C(=O)N2CCC(N3CCc4ccccc43)c3ccccc32)cc1OC (stereo not shown)
3. COc1ccc(C(=O)N2c3ccccc3C(N3CCCc4c(Cl)cccc43)=CC2C)cc1OC (stereo not shown)
4. CCCC1CC(N2CCCc3ccccc32)c2ccccc2N1C(=O)c1ccc(OC)c(OC)c1 (stereo not shown)
5. CCCCC1CC(N2CCCc3ccccc32)c2ccccc2N1C(=O)c1ccc(OC)c(OC)c1 (stereo not shown)
6. CCC1CC(n2c3ccccc3c3ccccc32)c2ccccc2N1C(=O)c1ccc(SC)c(OC)c1 (stereo not shown)

["128 to 129 °C", "121 to 123 °C", "162 to 163 °C", "176 to 177 °C", "159 to 160 °C", "210 to 211 °C"]
